target: human ether-à-go-go-related gene (hERG) potassium channel (human); assay: primary screen, population patch clamp on CHO cells stably expressing hERG; higher = less effect of the substance;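 also: peak tail current of the secondary pulse compared with the same well before compound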
Sequence (Q12809 whole entry, looked up): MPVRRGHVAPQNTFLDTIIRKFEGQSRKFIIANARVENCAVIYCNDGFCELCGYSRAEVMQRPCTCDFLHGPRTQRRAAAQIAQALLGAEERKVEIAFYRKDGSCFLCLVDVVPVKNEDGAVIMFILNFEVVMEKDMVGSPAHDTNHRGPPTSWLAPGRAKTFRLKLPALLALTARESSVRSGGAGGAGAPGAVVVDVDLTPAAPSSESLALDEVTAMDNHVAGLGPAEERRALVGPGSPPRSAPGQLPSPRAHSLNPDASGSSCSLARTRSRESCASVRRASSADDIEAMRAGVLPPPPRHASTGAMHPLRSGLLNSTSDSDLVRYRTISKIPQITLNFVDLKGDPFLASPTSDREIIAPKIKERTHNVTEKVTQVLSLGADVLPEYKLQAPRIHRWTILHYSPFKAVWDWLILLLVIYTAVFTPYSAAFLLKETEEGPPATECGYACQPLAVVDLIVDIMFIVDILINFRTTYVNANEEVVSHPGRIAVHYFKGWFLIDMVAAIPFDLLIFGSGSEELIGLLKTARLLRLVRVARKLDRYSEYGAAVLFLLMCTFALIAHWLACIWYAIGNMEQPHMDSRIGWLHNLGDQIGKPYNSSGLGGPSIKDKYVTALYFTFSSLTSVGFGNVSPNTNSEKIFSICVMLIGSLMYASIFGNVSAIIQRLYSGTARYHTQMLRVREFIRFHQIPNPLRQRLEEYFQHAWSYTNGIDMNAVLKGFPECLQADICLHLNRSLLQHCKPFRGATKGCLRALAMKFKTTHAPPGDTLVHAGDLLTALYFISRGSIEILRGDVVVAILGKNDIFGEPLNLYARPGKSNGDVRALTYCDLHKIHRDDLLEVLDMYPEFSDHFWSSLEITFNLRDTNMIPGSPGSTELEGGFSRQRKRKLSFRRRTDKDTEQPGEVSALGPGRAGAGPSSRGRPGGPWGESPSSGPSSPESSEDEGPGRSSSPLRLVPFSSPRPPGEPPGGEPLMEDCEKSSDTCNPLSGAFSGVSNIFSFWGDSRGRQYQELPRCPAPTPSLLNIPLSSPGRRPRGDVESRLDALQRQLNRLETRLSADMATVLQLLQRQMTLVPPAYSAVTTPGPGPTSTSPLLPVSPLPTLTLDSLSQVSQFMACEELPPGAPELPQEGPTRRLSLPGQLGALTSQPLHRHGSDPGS
Hit rate of the full screen: of about 310,000 compounds, about 14,000 (4.5%) showed an effect of 50% or more. The effect is printed as a negative number. The full list was thinned out, with strong results kept by preference.
Parameter: hERG current change (%, negative = inhibition) at 10uM (%)
Lab book: enter the figure in %, no units written.

// below: answered molecules
{"Molecule": "COc1ccc2c(c1)c(CC(=O)Nc1cccc(S(N)(=O)=O)c1)c(C)n2C(=O)c1ccc(Cl)cc1", "Experimental Value": 1.02}
{"Molecule": "Cc1ccc(C)c(N2CCN(CC(=O)Nc3ccc4[nH]c(=O)[nH]c4c3)CC2)c1", "Experimental Value": -3.56}
{"Molecule": "Cc1ccc(S(=O)(=O)N(CC(O)CN2CCCCC2)c2cccc([N+](=O)[O-])c2)cc1 (centres unmarked)", "Experimental Value": -78.8}
{"Molecule": "CCOC(=O)C1=C(C)N(C)C(=S)N(C)C1c1ccc(OC)cc1 (centres unmarked)", "Experimental Value": -10.5}
{"Molecule": "CCN(CC)S(=O)(=O)c1ccc2c(c1)nc(SCC(=O)N(C)C1CCS(=O)(=O)C1)n2CC (centres unmarked)", "Experimental Value": 6.94}
{"Molecule": "CCOC(=O)C1C(=O)C=C(c2ccc(C)cc2)CC1c1ccccc1 (centres unmarked)", "Experimental Value": 28.2}
{"Molecule": "Cc1cccc2c1-c1sc(C(=O)N3CCc4ccccc4C3)cc1CO2", "Experimental Value": -2.75}
{"Molecule": "COc1ccc([N+](=O)[O-])cc1N(CC(O)CN1CCCCC1)S(=O)(=O)c1ccc(C)cc1 (centres unmarked)", "Experimental Value": -42.7}

### Prompt Lab request: please report hERG current change (%, negative = inhibition) at 10uM under test system human ether-à-go-go-related gene (hERG) potassium channel (human) for Cc1cccc2c1-c1sc(C(=O)N3CCCCC3)cc1CO2;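 also: peak tail current of the secondary pulse compared with the same well before compound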
### Response -18.6

### Prompt Thanks! And CC(C)c1cccc(C(C)C)c1NC(=O)COC(=O)[C@H](C)NC(N)=O ?
### Response 16.8

### Prompt Thanks! And O=C(Nc1cccnc1)c1ccc(C(=O)Nc2cccnc2)cc1 ?
### Response 29.7

### Prompt Thanks! And CCCC[C@@H]1C[C@H]1[C@@H](NC(=O)c1ccco1)c1ccc(C(=O)OC)cc1 ?
### Response -34

### Prompt Thanks! And CCCN1CCN(CCCNC(=O)c2cc3c(s2)-c2c(C)cccc2OC3)CC1 ?
### Response -85.2

### Prompt Thanks! And CC(=O)N1CCN(c2ccc(NC(=O)c3ccc([N+](=O)[O-])o3)cc2Cl)CC1 ?
### Response -50

### Prompt Thanks! And CCCC[C@@H]1C[C@H]1[C@@H](NC(=O)c1ccco1)c1ccc(Cl)cc1 ?
### Response -50.2

### Prompt Thanks! And O=C1c2ccccc2NC2(CCCC2)N1N=C1CCCC1 ?
### Response -12.2

### Prompt Thanks! And CCOC(=O)C1C(=O)C=C(c2ccc(Br)cc2)CC1c1ccco1 (centres unmarked) ?
### Response -23.2

### Prompt Thanks! And CCOC(=O)C1(CCOc2ccccc2)CCN(Cc2ccc(O)c(Cl)c2)CC1 ?
### Response -53

### Prompt Thanks! And CCOC(=O)C1C(=O)C=C(c2ccc(C)cc2)CC1c1cccc([N+](=O)[O-])c1 (centres unmarked) ?
### Response -4.88
